# System: phospho-ERK in Panc1 (G12D)
# Assay: In-Cell Western phospho-ERK, Panc1
# Type: cell-based
# Condition set: Homo sapiens, PANC-1, 1 h; Panc1, one hour treatment; read-out: In-Cell Western Panc1 (G12D) Erk (P)
pEC50: −log10 of the molar value.
Value kind: pEC50

INSERT INTO assay_data (smiles_code, modifier_sign, value) VALUES
  ('Cc1nn(-c2ccc(F)cc2)c(C)c1C(=O)Nc1nc(-c2ccc3c(c2)CCC(=O)N3)cs1', '<', 4.60),
  ('CCn1nccc1C(=O)Nc1nc(-c2ccc3c(c2)CCC(=O)N3)cs1', '<', 4.60),
  ('COC(=O)CCCN1C(=O)CCc2cc(-c3csc(NC(=O)c4oc(C)nc4C)n3)ccc21', '=', 4.77),
  ('CCc1nc(C)c(C(=O)Nc2nc(-c3ccc4c(c3)CCC(=O)N4Cc3ccccn3)cs2)o1', '=', 5.52);

FYI, the data here is from patent US10344026B2.
